All values here come from the COVID Moonshot data (paper PMC11187573).

Test System: SARS-CoV-2 Main Protease (SARS-CoV-2)
Applied Conditions: 50.0 µM

Compound | Output Unit | inhibition
CC1(C)Cc2cccc(OCCNC(=O)c3cc(=O)[nH]c4ccc(F)cc34)c2O1 | % | 23.7
CC(NC(=O)CCl)c1cc(Cl)cc(-c2ccc(S(N)(=O)=O)cc2)c1 (configuration not stated) | % | 94.6
Cc1ccncc1NC(=O)[C@@]12COC[C@@H]1C2 (stereo in doubt) | % | -2.2
NC(=O)C1Cc2ccccc2N(CC(=O)Nc2cnccn2)C1 (configuration not stated) | % | 6.19
COc1ccccc1OCCN1C(=O)C(=O)c2cc(Br)cc(C)c21 | % | -0.707
Cc1ccn2c(-c3ccc4[nH]ncc4c3)c(-c3ccc(F)cc3)nc2c1 | % | 0.943
O=C(NCCN1CCN(C(=O)CCl)CC1)c1cccc2ccccc12 | % | 4.69
Cc1ccncc1NC(=O)C12CCC(CO1)C2 (configuration not stated) | % | 9.66
CC(=O)NCc1cccc(NC(=O)Cc2cncnc2)c1 | % | 6.22
O=C(NCc1ccccc1OCCO)C(=O)N[C@H]1C[C@H]1C1CCOCC1 (stereo in doubt) | % | -9.81
O=C(CCl)Nc1nc2c(S(=O)(=O)NCCc3ccccc3)cccc2s1 | % | 74.5
CCN1CCN(Cc2ccccc2CNC2=NC[C@@H](C3CCCC3)N2)CC1 (stereo in doubt) | % | -20.8
O=C(N/N=C/c1c[nH]cn1)C1CCCCC1 | % | 2.16
C=CC(=O)N(c1ccc(C(C)(C)C)cc1)C(C(=O)NC(C)(C)C)c1cccnc1C (configuration not stated) | % | 2.24
COc1ccc2[nH]cc(CCNC(C)=O)c2c1 | % | -0.962
CCN(CC)S(=O)(=O)c1ccc(NC(=O)Nc2cn(C)c(=O)c3ccccc23)cc1 | % | -1.21
COC(=O)C(Cc1ccccc1)C(C)NC(=O)C(C)n1ccnc1 (configuration not stated) | % | 11.9
COc1cc(OC)cc(Oc2ccc(CNC(=O)Cn3nnc4ccccc43)cc2)c1 | % | 17.3
C=CC(=O)N(c1ccc(C(F)(F)F)cc1)C(C(=O)NCCc1cccc(F)c1)c1cccnc1 (configuration not stated) | % | 72.7
Cc1ccc(NC(=O)C(C#N)C(=O)CC(C)C)cc1 (configuration not stated) | % | 21.5
CCOC(=O)c1nc(S(C)(=O)=O)ncc1Cl | % | 98.5
NCCn1cc(C(=O)N2CC3(CCC3)c3cc(Br)ccc32)cn1 | % | 7.52

====

The following compounds are shown together with reported inhibition values.
Test System: UniProtKB P0DTD1
Applied Conditions: 20.0 µM
Measurement Name: inhibition (%)

Compound | Test System | Measurement Name | Output Unit | Value
C=CC(=O)NCC(=O)N(Cc1ccccc1)C[C@H](O)c1ccccc1 (stereo in doubt) | UniProtKB P0DTD1 | inhibition | % | -0.281
C=CC(=O)N(c1ccc(C2CCOC2)cc1)C(C(=O)NC(C)(C)C)c1cccnc1 (centres undefined) | UniProtKB P0DTD1 | inhibition | % | -11.9
Cc1cccc(NC(=O)Cn2c(=O)oc3ccccc32)c1 | UniProtKB P0DTD1 | inhibition | % | -20.4
C=CC(=O)N(c1ccc(C(C)(C)CC)cc1)C(C(=O)Nc1ccc(Br)cc1)c1cccnc1 (centres undefined) | UniProtKB P0DTD1 | inhibition | % | 8.32
Cn1cc(NC(=O)NCc2ccccn2)c2ccccc2c1=O | UniProtKB P0DTD1 | inhibition | % | -2.84
O=C(Nc1cnccc1Cl)c1cc(Cl)ccc1O | UniProtKB P0DTD1 | inhibition | % | 66.8
N#Cc1cc(CN2CCN(C(=O)CCl)CC2)c2ccccc2c1 | UniProtKB P0DTD1 | inhibition | % | 83.6
N#Cc1ccc(CN2C(=O)C(=O)c3cccc(Br)c32)c(F)c1 | UniProtKB P0DTD1 | inhibition | % | -1.68
CC(C)Cn1cc(NC(=O)N2CCCN(Cc3ccccc3F)C2)c2ccccc2c1=O | UniProtKB P0DTD1 | inhibition | % | -1.37
NS(=O)(=O)c1ccc(N2CCC(CO)CC2)cc1 | UniProtKB P0DTD1 | inhibition | % | 3.95
O=C(NCc1ccc2c(c1)OCO2)c1nc(S(=O)(=O)Cc2ccccc2)ncc1Cl | UniProtKB P0DTD1 | inhibition | % | 98.5
O=C(CCl)N1CCCC(N(CC2CCCCC2)C2CCC(O)CC2)C1 (centres undefined) | UniProtKB P0DTD1 | inhibition | % | -11.8
O=C1C(=O)N(CCCOc2ccc(Cl)cc2)c2ccccc21 | UniProtKB P0DTD1 | inhibition | % | -0.218
COc1cccc(C(=O)Nc2n[nH]c(SCc3ccc(Cl)cc3)n2)c1 | UniProtKB P0DTD1 | inhibition | % | 8.77
O=C(Nc1cnccc1Cl)c1cccc(Cl)c1 | UniProtKB P0DTD1 | inhibition | % | -2.3
Cc1ccncc1-c1nc(-c2cccc(Cl)c2)no1 | UniProtKB P0DTD1 | inhibition | % | 3.58
O=C(Nc1cccnc1)c1cccc(Cl)c1 | UniProtKB P0DTD1 | inhibition | % | 5.47
CN(C(=O)Cn1nnc2ccccc21)c1ccc(Oc2ccc(C(F)(F)F)cn2)cc1 | UniProtKB P0DTD1 | inhibition | % | 30.2
O=S(=O)(Cc1noc(C2CC2)n1)Nc1cccnc1 | UniProtKB P0DTD1 | inhibition | % | -2.48
CC(C(=O)Nc1cnccc1O)c1ccccc1 (centres undefined) | UniProtKB P0DTD1 | inhibition | % | 0.187
O=C(CCl)N1CCN(S(=O)(=O)c2ccc(Cc3cccc4ccccc34)cc2)CC1 | UniProtKB P0DTD1 | inhibition | % | 20.6
O=C(Cc1cccnc1)Nc1cc(Cl)ccc1O | UniProtKB P0DTD1 | inhibition | % | -1.54
O=C(c1cc(=O)[nH]c2ccc(Cl)cc12)N1CCN(S(=O)(=O)c2ccccc2)CC1 | UniProtKB P0DTD1 | inhibition | % | 10.6
CCN(Cc1cccc(-c2ccncc2)c1)C(=O)Cc1noc2ccccc12 | UniProtKB P0DTD1 | inhibition | % | -25.4
Cc1cccc(C)c1OCC(=O)NCCc1ccccc1 | UniProtKB P0DTD1 | inhibition | % | 1.78
Cc1ccncc1NC(=O)CN(C)S(=O)(=O)c1cccc2cccnc12 | UniProtKB P0DTD1 | inhibition | % | 43.4
COc1ccccc1OCC(C)NC(=O)c1cc(=O)[nH]c2cc(F)ccc12 (centres undefined) | UniProtKB P0DTD1 | inhibition | % | 46.9
C=CC(=O)N(c1ccc(C(C)(C)C)cc1)C(C(=O)NC(C)(C)C)c1cnccc1C (centres undefined) | UniProtKB P0DTD1 | inhibition | % | -14
C=CC(=O)N(c1ccc(C(C)(C)C)cc1)C(C(=O)NC1CCCCC1)c1cccnc1 (centres undefined) | UniProtKB P0DTD1 | inhibition | % | 13.3
Cc1cc([C@H](C)C(=O)O)cc2[nH]c3ccc(Cl)cc3c12 (stereo in doubt) | UniProtKB P0DTD1 | inhibition | % | 0.304
CCCNC(=O)C(C)NC(=O)N(C)Cc1csc(C)n1 (centres undefined) | UniProtKB P0DTD1 | inhibition | % | 0.814
Cc1nc(-c2cccc(CNC(=O)Nc3cccc(CN4CCCC4=O)c3)c2)n[nH]1 | UniProtKB P0DTD1 | inhibition | % | 2.12
Nc1cccc(C2CN(C(=O)CCl)Cc3ccccc32)c1 (centres undefined) | UniProtKB P0DTD1 | inhibition | % | 48
COc1ccccc1OCCNC(=O)c1cc(=O)[nH]c2ccc(Cl)cc12 | UniProtKB P0DTD1 | inhibition | % | -2.31
Cc1ccc(S(=O)(=O)N2CCN(C(=O)c3cc(=O)[nH]c4ccc(F)cc34)CC2)c(C)c1 | UniProtKB P0DTD1 | inhibition | % | 6.24
C=CC(=O)N(c1ccc(C(F)(F)F)cc1)C(C(=O)NCCc1cccc(F)c1)c1cncc(Cl)c1 (centres undefined) | UniProtKB P0DTD1 | inhibition | % | 50.2
Cc1ccncc1NC(=O)C[C@H](c1ccccc1)N1CCC(O)CC1 (stereo in doubt) | UniProtKB P0DTD1 | inhibition | % | 6.5
C=CC(=O)N(c1ccc(C(C)(C)C)cc1)C(C(=O)NCc1ccc(F)cc1)c1cccnc1 (centres undefined) | UniProtKB P0DTD1 | inhibition | % | 51.2
Cc1ccncc1N(C)C(=O)[C@@H]1C[C@H]1CF (stereo in doubt) | UniProtKB P0DTD1 | inhibition | % | -7.38
Cc1ccncc1NC(=O)C(C)Cc1ccccc1 (centres undefined) | UniProtKB P0DTD1 | inhibition | % | -54.9
C=CC(=O)N(c1ccc(C(F)(F)F)cc1)C(C(=O)Nc1ccc(OC)cc1C)c1cccnc1 (centres undefined) | UniProtKB P0DTD1 | inhibition | % | 7.06
COc1c(NC(=O)Cc2cccc(Cl)c2Cl)c(C)nn1C | UniProtKB P0DTD1 | inhibition | % | 2.78
COCc1cc(Cl)cc(CN2CCN(C(=O)CCl)CC2)c1 | UniProtKB P0DTD1 | inhibition | % | 97.6
COc1ccc(N2C(=O)CCS2(=O)=O)cc1S(=O)(=O)Nc1cccc2cccnc12 | UniProtKB P0DTD1 | inhibition | % | 65.3
